# Target Entity: T1, HLA-DR DRB1*0405 (human)
# T1 chain 1: not shown
# T1 chain 2: not shown
# Assay Name: competition with 125I probe, purified MHC II
pIC50: −log10 of the molar value.
Assay Endpoint: pIC50

>>> numeric_value("PLGFFPDHQLDPAFGANSNNPDWDFNP (modifications not checked) [HBV Pre S1 21-47]")
7.51
